- measurementNotes: chemical genetic growth profiling, strain panel (AID 1159580);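 further: tested at 20 µM; growth read once vehicle control cultures reached saturation at 30 °C; 1 = growth at the plate median or of vehicle wells; lower values mean less growth of the strain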
- conditionInfo: S. cerevisiae deletion strains, growth OD, locus YDR159W, strain sac3, stronger effect = lower value
The whole screen tested about 5,500 compounds, of which about 2,000 (36%) were called active. Roughly 18% stayed inconclusive and do not appear here. This is one part of the list.
metricName: normalized growth

[[record]]
compound = "O=S(=O)(O)CCS"
resultvalue = 0.977

[[record]]
compound = "Cc1ccc(S(=O)(=O)NC(=O)NN2CCCCCC2)cc1"
resultvalue = 0.969

[[record]]
compound = "Cc1ccc(C(=O)Nc2ccc(S(=O)(=O)O)c3cc(S(=O)(=O)O)cc(S(=O)(=O)O)c23)cc1NC(=O)c1cccc(NC(=O)Nc2cccc(C(=O)Nc3cc(C(=O)Nc4ccc(S(=O)(=O)O)c5cc(S(=O)(=O)O)cc(S(=O)(=O)O)c45)ccc3C)c2)c1"
resultvalue = 1

[[record]]
compound = "CCC(C)C(=O)O[C@@H]1C[C@@]2(C)[C@H](c3ccoc3)OC(=O)CC23OC2(C)OC34[C@H](OC(=O)C(C)C)[C@@]3(O)[C@@H](OC(=O)C5(C)OC5C)[C@@]5(C)C[C@]3(O)[C@@](C)([C@H]5CC(=O)OC)C14O2 (stereo partly drawn)"
resultvalue = 0.981

[[record]]
compound = "COC(=O)C[C@H]1C2(C)CC34OC5(C)O[C@@]6([C@H](OC)C(OC(=O)C(C)C)[C@]7(C)C(/C(=C(/OC)C(C)C)C(=O)O[C@H]7c7ccoc7)[C@@]6(O5)[C@H](OC)[C@@]3(OC)C2OC(C)=O)[C@]14C (stereo partly drawn)"
resultvalue = 1

[[record]]
compound = "Nc1ncn[nH]1"
resultvalue = 1.05

[[record]]
compound = "CCCCNC(=O)NS(=O)(=O)c1ccc(C)cc1"
resultvalue = 0.93

[[record]]
compound = "N=c1ccn2c(n1)OC1C(O)C(CO)OC12 (stereo not drawn)"
resultvalue = 1


----------
- measurementNotes: chemical genetic growth profiling, strain panel (AID 1159580);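 further: tested at 20 µM; growth read once vehicle control cultures reached saturation at 30 °C; 1 = growth at the plate median or of vehicle wells; lower values mean less growth of the strain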
- conditionInfo: S. cerevisiae deletion strains, growth OD, locus YBR171W, strain sec66, stronger effect = lower value
Screen size: about 5,500 compounds; about 2,000 (36%) were called active. Roughly 18% stayed inconclusive and do not appear here. The list shows a part of the results.
# normalized growth per record follows
metricName: normalized growth

[[record]]
molecule = "O=c1cccc2ccc(O)c(O)c2c1O"
resultvalue = 0.928

[[record]]
molecule = "CC(C)NCC(O)COc1cccc2[nH]ccc12 (stereo unspecified)"
resultvalue = 0.979

[[record]]
molecule = "Cc1[nH]c2ccccc2c1CN(C)C"
resultvalue = 1.02

[[record]]
molecule = "COc1c(N2CCNC(C)C2)c(F)cc2c(=O)c(C(=O)O)cn(C3CC3)c12 (stereo unspecified)"
resultvalue = 0.985

[[record]]
molecule = "COC(=O)c1cc(=O)c(O)c2c(O)c(O)ccc2c1"
resultvalue = 0.976

[[record]]
molecule = "COc1ccc2c(c1)OC1(O)COc3cc(OC)c(OC)cc3C1=C2 (stereo unspecified)"
resultvalue = 0.965


----------
- measurementNotes: chemical genetic growth profiling, strain panel (AID 1159580);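 further: tested at 20 µM; growth read once vehicle control cultures reached saturation at 30 °C; 1 = growth at the plate median or of vehicle wells; lower values mean less growth of the strain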
- conditionInfo: S. cerevisiae deletion strains, growth OD, locus YLR221C, strain rsa3
Among all 5,500 compounds or so, about 2,000 (36%) were called active. Roughly 18% stayed inconclusive and do not appear here. Cut-off read from the data, not from the text of the source: active = normalized growth mostly below about 0.91 (no sharp cut-off); inconclusive = no clear call, values can overlap the other calls; inactive = mostly above about 0.92. The list shows a part of the results.
Outcome codes: active, inactive

[[record]]
molecule = "CC1(C)S[C@@H]2[C@H](NC(=O)[C@H](N)c3ccccc3)C(=O)N2[C@H]1C(=O)O"
category = "inactive"

[[record]]
molecule = "C=CC[C@]1(O)CCC2C3CCC4=CC(=O)CCC4=C3C=C[C@@]21C (stereo partly specified)"
category = "inactive"

[[record]]
molecule = "CO/N=C1/CN(c2nc3c(cc2F)c(=O)c(C(=O)O)cn3C2CC2)CC1CN (stereo unspecified)"
category = "inactive"

[[record]]
molecule = "CN1CC(=O)N=C1N"
category = "inactive"

[[record]]
molecule = "CC1CCc2cc(F)cc3c(=O)c(C(=O)O)cn1c23 (stereo unspecified)"
category = "inactive"

[[record]]
molecule = "CCCc1cc(C(N)=S)ccn1"
category = "inactive"

[[record]]
molecule = "CC1(O)CC2C(CC1O)C2(C)C (stereo unspecified)"
category = "inactive"

[[record]]
molecule = "CCn1cc(C(=O)O)c(=O)c2cc(F)c(N3CCNCC3)nc21"
category = "inactive"

[[record]]
molecule = "CC#CC1(O)CCC2C3CCC4=CC(=O)CCC4=C3C(c3ccc(N(C)C)cc3)CC21C (stereo unspecified)"
category = "inactive"

[[record]]
molecule = "CC[C@@]1(O)C[C@H](O[C@H]2C[C@H](N(C)C)[C@H](O)[C@H](C)O2)c2c(cc3c(c2O)C(=O)c2c(O)ccc(O)c2C3=O)[C@H]1C(=O)OC"
category = "active"

[[record]]
molecule = "c1ccc2c(c1)sc1ccccc12"
category = "active"

[[record]]
molecule = "CN1C2C[C@H](OC(=O)[C@H](CO)c3ccccc3)C[C@H]1[C@@H](O)C2"
category = "inactive"

[[record]]
molecule = "COc1c(N2CCNC(C)C2)c(F)cc2c(=O)c(C(=O)O)cn(C3CC3)c12 (stereo unspecified)"
category = "inactive"

[[record]]
molecule = "Cc1ccc(C(=O)Nc2ccc(S(=O)(=O)O)c3cc(S(=O)(=O)O)cc(S(=O)(=O)O)c23)cc1NC(=O)c1cccc(NC(=O)Nc2cccc(C(=O)Nc3cc(C(=O)Nc4ccc(S(=O)(=O)O)c5cc(S(=O)(=O)O)cc(S(=O)(=O)O)c45)ccc3C)c2)c1"
category = "inactive"

[[record]]
molecule = "Oc1ccc2c(c1)O[C@H](c1ccc(O)c(O)c1)[C@@H](O)C2"
category = "inactive"

[[record]]
molecule = "C=C1C2CC[C@@]3(C)[C@H](c4ccoc4)OC(=O)C[C@]13O[C@H]1CC(=O)C(C)(C)[C@H](C(OC(C)=O)C(=O)OC)[C@@]21C (stereo partly specified)"
category = "inactive"

[[record]]
molecule = "N[C@@H](Cc1ccc(N(CCCl)CCCl)cc1)C(=O)O"
category = "inactive"

[[record]]
molecule = "Cc1ncc(CNC(=O)N(CCCl)N=O)c(N)n1"
category = "inactive"

[[record]]
molecule = "CCCCCCCCC(=O)NCc1ccc(O)c(OC)c1"
category = "inactive"

[[record]]
molecule = "O=C(O)/C=C/c1ccc(O)c(O)c1"
category = "inactive"

[[record]]
molecule = "O=C(O)CCCc1ccc(N(CCCl)CCCl)cc1"
category = "inactive"

[[record]]
molecule = "COc1ccc(OC)c(C(O)CNC(=O)CN)c1 (stereo unspecified)"
category = "inactive"

[[record]]
molecule = "C[C@]12CCC(=O)C=C1C=CC1C2CC[C@@]2(C)C1CC[C@@]21CCC(=O)O1 (stereo partly specified)"
category = "inactive"

[[record]]
molecule = "O=C(O[C@@H]1Cc2c(O)cc(O)cc2O[C@@H]1c1ccc(O)c(O)c1)c1cc(O)c(O)c(O)c1"
category = "inactive"

[[record]]
molecule = "NS(=O)(=O)c1cc2c(cc1Cl)NC=NS2(=O)=O"
category = "inactive"

[[record]]
molecule = "Oc1cc(O)c2c(c1)O[C@H](c1cc(O)c(O)c(O)c1)[C@H](O)C2"
category = "inactive"

[[record]]
molecule = "O=C(O)CCCc1ccccc1"
category = "inactive"

[[record]]
molecule = "O=S(=O)(O)c1cc(N=C=S)ccc1/C=C/c1ccc(N=C=S)cc1S(=O)(=O)O"
category = "inactive"

[[record]]
molecule = "O=C1C(Cl)=C(Cl)C(=O)C(Cl)=C1Cl"
category = "active"

[[record]]
molecule = "Oc1cc(O)c2c(c1)O[C@H](c1ccc(O)c(O)c1)[C@H](O)C2"
category = "inactive"

[[record]]
molecule = "COc1cc2nc(N(C)CCCNC(=O)C3CCCO3)nc(N)c2cc1OC (stereo unspecified)"
category = "inactive"

[[record]]
molecule = "O=C(Oc1cc(O)cc2c1C[C@@H](OC(=O)c1cc(O)c(O)c(O)c1)[C@@H](c1cc(O)c(O)c(O)c1)O2)c1cc(O)c(O)c(O)c1"
category = "inactive"

[[record]]
molecule = "OCCc1ccccc1"
category = "inactive"

[[record]]
molecule = "CN1C2CCC1CC(OC(c1ccccc1)c1ccccc1N)C2 (stereo unspecified)"
category = "inactive"

[[record]]
molecule = "CCn1cc(C(=O)O)c(=O)c2cc(F)c(N3CCNC(C)C3)c(F)c21 (stereo unspecified)"
category = "inactive"

[[record]]
molecule = "CC(=O)Oc1cc(OC(C)=O)c2c(c1)O[C@H](c1ccc(OC(C)=O)c(OC(C)=O)c1)[C@H](OC(C)=O)C2"
category = "inactive"

[[record]]
molecule = "O=C(Oc1cc(OC(=O)c2ccccc2)c2c(c1)O[C@H](c1ccc(OC(=O)c3ccccc3)c(OC(=O)c3ccccc3)c1)[C@@H](OC(=O)c1ccccc1)C2)c1ccccc1"
category = "inactive"

[[record]]
molecule = "O=C(O[C@@H]1Cc2c(O)cc(O)cc2O[C@@H]1c1cc(O)c(O)c(O)c1)c1cc(O)c(O)c(O)c1"
category = "active"

[[record]]
molecule = "CNCCC(Oc1ccc(C(F)(F)F)cc1)c1ccccc1 (stereo unspecified)"
category = "inactive"

[[record]]
molecule = "CC(C)NCC(O)COc1cccc2[nH]ccc12 (stereo unspecified)"
category = "inactive"

[[record]]
molecule = "Oc1cc(O)c2c(c1)O[C@H](c1ccc(O)c(O)c1)[C@@H](O)C2"
category = "inactive"

